Each recorded value in this set is attributed to patent US20230167182A1.

- tested target: T1, recombinant human IL6R-his (human, UniProt P08887 20-365)
- T1 construct: In house made; the entry includes the C-terminal His tag; also called human IL6R-his protein
- T1 sequence: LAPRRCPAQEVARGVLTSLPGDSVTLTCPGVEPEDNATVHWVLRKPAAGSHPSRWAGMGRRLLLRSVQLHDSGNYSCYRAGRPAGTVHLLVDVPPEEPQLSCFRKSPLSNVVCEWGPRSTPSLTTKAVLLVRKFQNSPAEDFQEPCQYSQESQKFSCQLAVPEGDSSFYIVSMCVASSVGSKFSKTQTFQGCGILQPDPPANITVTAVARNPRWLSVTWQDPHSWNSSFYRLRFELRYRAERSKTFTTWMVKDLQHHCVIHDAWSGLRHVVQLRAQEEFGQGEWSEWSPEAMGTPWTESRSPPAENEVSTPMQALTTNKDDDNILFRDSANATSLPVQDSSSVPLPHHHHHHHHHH
- measurement protocol: SPR Biacore T200; mAb captured by anti-mouse IgG on CM5, antigen in flow, 1:1 fit
reported endpoint: Kd

Briefly, Kd measured for mouse anti-IL6R monoclonal antibody 3C2 (antibody, V domains shown, Mouse hybridoma mAb) VH: QVQLQQPGTELVKPGASVKLSCKASGYTFTTYWIHWVKQRPGQGLEWIGEINPSNGRTNYNEHFKSKATLTVDKSSSTASMQLSSLTSADSAVYYCARLNTHYVFDSWGQGTTLTVSS VL: EIVLTQSPTTMAASPGEKITITCSASSSISSNYLHWYQQKPGFSPKLLIYRTSNLASGVPTHFSGSGSGTSYSLTIGTMEAEDVATYYCQQGSGIPFTFGSGTKLEIK : 911 pM
